Test: qHTS assay to identify small molecule that activate the aryl hydrocarbon receptor (AhR) signaling pathway - cell viability counter screen (AID 743086);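 note: HepG2 liver cells carrying the AhR DRE luciferase reporter; nearly all actives have a fitted effect of over 45% in size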
Conditions: HepG2-AhR-luc viability, CellTiter-Fluor, 24 h; series mostly up to 70.3 µM
Results filed as inconclusive are left out. Active and inactive are the calls of the source. Calls come from the whole dose curve; as a rule, active = well fitted cell-killing curve with a large enough effect in the repeat runs; inconclusive = weak or mixed curves, or effect the other way; inactive = flat fitted curve, though single readings scatter.
Measurement Type: outcome

// worked examples, outcome included
In [3]: df
Out[3]:
                                   compound  value_observed
0  C=CC(C)(CCC=C(C)C)OC(=O)c1ccccc1 (centres undefined)        inactive
1                   Cc1ccc2c(ccc3ccccc32)c1        inactive
2  CCN(CCO)CCCC(C)Nc1ccnc2cc(Cl)ccc12 (centres undefined)        inactive
3      O=C1c2cccc(O)c2C(=O)c2c(O)cc(CO)cc21        inactive

Query: Which value of outcome has been reported for O=C(O)[C@@H]1[C@H]2C[C@H]3c4[nH]c5ccccc5c4CCN3C[C@@H]2CC[C@@H]1O in the records?
Reply: inactive

Query: Which value of outcome has been reported for CCCCCCOC(=O)CCC in the records?
Reply: inactive

Query: Which value of outcome has been reported for CCOC(=S)SSC(=S)OCC in the records?
Reply: inactive

Query: Which value of outcome has been reported for N#CCCNCCC#N in the records?
Reply: inactive

Query: Which value of outcome has been reported for CCCCCCCCC(CO)CCCCCC (centres undefined) in the records?
Reply: inactive

Query: Which value of outcome has been reported for CCOc1ccc2[nH]cc(C(=O)NCc3ccccc3)c(=O)c2n1 in the records?
Reply: inactive

Query: Which value of outcome has been reported for Nc1ccc(C(=O)Nc2ccccc2N)cc1 in the records?
Reply: inactive

Query: Which value of outcome has been reported for Cc1cccc(Oc2ccccc2)c1 in the records?
Reply: inactive

Query: Which value of outcome has been reported for CCCCCOC(=O)c1ccc(O)cc1 in the records?
Reply: inactive

Query: Which value of outcome has been reported for CC(=O)/C=C/C1C(C)=CCCC1(C)C (centres undefined) in the records?
Reply: inactive
